What protease stability score was measured for each of the following?
# procedure_summary: protease stability score; higher = more stable; yeast display proteolysis, trypsin and chymotrypsin;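 further: relative to predicted unfolded state with 0 unfolded-like and 1 meaning tenfold more protease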
Enter the number alone.

Respond only with protease stability score recorded for DEEDELSHQIAEEFFRFFSTGNEEKSKELLDPDVRVESEDHHDHGMHKLLHLWNRIDHIHMRSRHVEFDRVGDFLEIRMRGHVILDVNGVRTEIDTELLLVVTKFDGRWLMHEVKFIIR
0.696

Respond only with protease stability score recorded for DESKEAAELFIKQVERSTKTGDERLFEEFIDPHMRLEIGEFDYHGREFLHITLRDLGMEIRTFIVKDIKVQGDKARIRVEEHIQVNGVEQRRQVKYVIDKFDGRWEIHSVHFD
0.392

Respond only with protease stability score recorded for DEEERLVRKFSSVVKHIFKTGDWKRFTELADPDTLLIIIIGDKEIRHHGREEITHALREWFRILGIDHFHIRDERYQGDKVELDTEVRYNGQTHDFVIEVIVVDGRAKEFKIRFR
1.67

Respond only with protease stability score recorded for SEEEKYFEHWLKILLQNMHTGNEENLKRLADPTYRLHIGDKNFIGREMFLDSMRRIDHFDDAKLKSIETYGDYVHAEIDHDGRVDGRKIRVNTILLTLKVDGRWIVHSFKIE
0.827

Respond only with protease stability score recorded for DEQEKHLKKISEDLLRIWLTGDEDTFREMADPDMRFIDEDHELHGREELIRMMREFWHKFKNARIEIHHVEVIGEYNNVDIRLSVDGRVVDVKLHFLIVNGRLKKVEVRER
2.07

Respond only with protease stability score recorded for DEDEEEAEKFFWTWVESVLTGDEDMLHHLVDPNVRYSQGEKQIHGRESVVKFMSEARVDSIRIKSMHIFNGRINIDSEIDGVINGKRTRIKVHLYILKVDGRWLMQSIEVK
2.03

* * *

# procedure_summary: protease stability score; higher = more stable; yeast display proteolysis, trypsin and chymotrypsin;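 further: relative to predicted unfolded state with 0 unfolded-like and 1 meaning tenfold more protease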
What protease stability score was measured for each of the following?
Enter the number alone.

Respond only with protease stability score recorded for SEDEERLRKFAEHMVNLWFTGNENELTKLIDPDTRIDIDGKELHGMELAFRVLQEHLEKLGVKHQEVRDVEIYGDKFILHWTLHVGDFTLRMEVRIVVINGRVKSMEFRTDHR
1.89

Respond only with protease stability score recorded for DEEKEEIELAIRLTEKMLKTGDEELWRENADPNARFVTENHDDHGREVIVKWVHEMRRKFKNMRLEIEDVRTFNGRLEIHLRLNVNGRDLKINIIVEKVNGRWFLREIEIQ
1.74

Respond only with protease stability score recorded for NHLEEVKDLAIELSWKLMHTGNEELSDRNADPNTRLEFNGVEFVGREWFRQFISEMGVKHIRIDDIDMFDGRMRLDGTFNFNGQEIKVTVFTRKVDGRWRIKSLKFD
1.6

Respond only with protease stability score recorded for DEEEHSYEWAHKVSRHTTETGNEDLSRELADPNVRVIIGDKEYHGWKFMTHLLAHLRIKHIIIRSIRVQGNKLDLNEEVHGEIDGKDETFKLDLVILKVNGRWVIKSVRVE
0.612

Respond only with protease stability score recorded for DEERKETEEATRQDIHDFRTGDEKSFDEFFDPNVRLDINGVRVHGRELASKWFRDFFRELGVKHSEIEHREIQGEKAIVNEDVRVGDKRVEVILVYLKINGRWEITTVTLRHE
1.05

Respond only with protease stability score recorded for DEEEIHNRLAYRLSHELLETGDWHLMILLADPHVRFEDENHEAHGREEYKEHLNEIHELLGLEKFEVRIHSWRVYDGRVIVHGHILFNGVEFNVETVSLKFNGRWIIEEQRLE
1.36

Respond only with protease stability score recorded for DEEEEMVREVLHRVIHNILTGDEDSVSRMADPHVRVKEIINGKEFTLHGREMMLHMIREWRNRADHVEIHIRRSRVINGRLDSHGLLIIEINGKEIRHDTNLHLYVVDGVIKILTWNIE
1.45

Respond only with protease stability score recorded for DEDEENARKVSKKYKEIVLTGDEHALERLIDPNVRIDFNGKEFHGREDLSRLFHERFKRADHIEFDVKHINVQGNKVDLDVREIEIVGDKTHVHNVILHVLKIDGRWLIKEIRVH
1.26

Respond only with protease stability score recorded for HEDDHAVRKTIEDLLRSITTGDFELYSKLADPNTRFNIDGVNDVGMEIWVEKAIQHGWKVRHFHIRDVEVQGDKIDVDLKIDEDVNGRRIDIHVLLIIRKIDGRWILESVEHV
1.64

Respond only with protease stability score recorded for TEFEQEVERMIRMWRHLYETGDEKTLSHLVDPNVRVIVDGKHIHGREQVVNEIRRAHIVDDFEIRLEDTKYFEGRAVFTGIIREHGHVDGRTVHKSTKVEIDVVKVDGQWLIHRINFH
1.54

Respond only with protease stability score recorded for DEDEKEAEHAAKLFSRHFRTGDEDLLREMIDPNVRIRIGDKELHGWEEFTRLMREWRFDDVHVEHIHVQGDKVIVDSILHVIINGRHIDFRSHIYIEKIDGRWVIRSFEIR
0.651
